# measured_target: MCL-1 (Homo sapiens (Human))
# Sequence (Q07820 whole entry): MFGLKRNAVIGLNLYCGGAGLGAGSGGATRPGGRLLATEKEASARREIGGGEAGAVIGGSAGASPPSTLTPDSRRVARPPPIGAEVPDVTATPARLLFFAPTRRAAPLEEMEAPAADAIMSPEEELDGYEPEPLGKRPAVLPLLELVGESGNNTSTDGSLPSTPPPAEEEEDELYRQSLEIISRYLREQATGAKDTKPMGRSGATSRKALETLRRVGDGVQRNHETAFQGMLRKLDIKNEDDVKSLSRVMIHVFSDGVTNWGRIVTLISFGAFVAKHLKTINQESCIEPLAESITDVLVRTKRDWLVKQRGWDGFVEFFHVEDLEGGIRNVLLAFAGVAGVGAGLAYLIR
# assay_method_text: MCL-1 TR-FRET Assay (primary PPI inhibition)
# Type: binding
# assay_context: 60 min incubation; read-out: MCL1 IC50
pIC50: −log10 of the molar value.
Reported pIC50 values are given for each entry in this list.

COCCNC(=O)c1ccc(CN(C(=O)c2cc(-c3cc4c(cc3C(=O)N3Cc5ccccc5C[C@H]3CN3CCOCC3)OCO4)n3c2CCCC3)c2ccc(O)cc2)cc1	< 4.00
CN(C)CCNC(=O)c1cccc(CN(C(=O)c2cc(-c3cc4c(cc3C(=O)N3Cc5ccccc5C[C@H]3CN3CCOCC3)OCO4)n3c2CCCC3)c2ccc(O)cc2)c1	< 4.00
CN1CCN(C(=O)c2cccc(CN(C(=O)c3cc(-c4cc5c(cc4C(=O)N4Cc6ccccc6C[C@H]4CN4CCOCC4)OCO5)n4c3CCCC4)c3ccc(O)cc3)c2)CC1	< 4.00
COCCNC(=O)c1cccc(CN(C(=O)c2cc(-c3cc4c(cc3C(=O)N3Cc5ccccc5C[C@H]3CN3CCOCC3)OCO4)n3c2CCCC3)c2ccc(O)cc2)c1	< 4.00

Lab note: need pIC50 for CN1CCN(C(=O)c2ccc(CN(C(=O)c3cc(-c4cc5c(cc4C(=O)N4Cc6ccccc6C[C@H]4CN4CCOCC4)OCO5)n4c3CCCC4)c3ccc(O)cc3)cc2)CC1 on MCL-1 (Homo sapiens (Human)), anyone have it?
< 4.00

Now try CN(C)CCNC(=O)c1ccc(CN(C(=O)c2cc(-c3cc4c(cc3C(=O)N3Cc5ccccc5C[C@H]3CN3CCOCC3)OCO4)n3c2CCCC3)c2ccc(O)cc2)cc1 .
< 4.00

----------
# assay_method_text: Cell viability assay (CellTiter-Glo), HEK293
# Format: cell-based
# assay_context: human, HEK293 cells, read-out: HEK293 (CC50 code)
Some compounds, each annotated with its measured CC50 at 3 days.

Solved entries (count: 2):
O=C(c1cc(-c2cc3c(cc2C(=O)N2Cc4ccccc4C[C@H]2CN2CCOCC2)OCO3)n2c1CCCC2)N(Cc1ccccc1F)c1ccc(O)cc1	10 to 25 µM
Cc1ccccc1CN(C(=O)c1cc(-c2cc3c(cc2C(=O)N2Cc4ccccc4C[C@H]2CN2CCOCC2)OCO3)n2c1CCCC2)c1ccc(O)cc1	> 25 µM

Using the record for O=C(c1cc(-c2cc3c(cc2C(=O)N2Cc4ccccc4C[C@H]2CN2CCOCC2)OCO3)n2c1CCCC2)N(Cc1ccc(C(F)(F)F)cc1)c1ccc(O)cc1 , report its CC50 at 3 days.
≤ 10 µM

Quick one: O=C(c1cc(-c2cc3c(cc2C(=O)N2Cc4ccccc4C[C@H]2CN2CCOCC2)OCO3)n2c1CCCC2)N(Cc1ccncc1)c1ccc(O)cc1
10 to 25 µM

Then O=C(c1cc(-c2cc3c(cc2C(=O)N2Cc4ccccc4C[C@H]2CN2CCOCC2)OCO3)n2c1CCCC2)N(Cc1cccnc1)c1ccc(O)cc1 ?
10 to 25 µM

Try this compound too: O=C(c1cc(-c2cc3c(cc2C(=O)N2Cc4ccccc4C[C@H]2CN2CCOCC2)OCO3)n2c1CCCC2)N(Cc1c(F)cccc1F)c1ccc(O)cc1
> 25 µM

----------
What follows is a record of pIC50 for BCL-XL (Homo sapiens (Human), UniProt Q07817).
pIC50: −log10 of the molar value.

Field: example entries. Status: answers known.
COc1ccccc1CN(C(=O)c1cc(-c2cc3c(cc2C(=O)N2Cc4ccccc4C[C@H]2CN2CCOCC2)OCO3)n2c1CCCC2)c1ccc(O)cc1 [Compound 31]	≥ 5.70
O=C(c1cc(-c2cc3c(cc2C(=O)N2Cc4ccccc4C[C@H]2CN2CCOCC2)OCO3)n2c1CCCC2)N(Cc1ccccc1Cl)c1ccc(O)cc1 [Compound 33]	≥ 5.70
Cc1ccc(CN(C(=O)c2cc(-c3cc4c(cc3C(=O)N3Cc5ccccc5C[C@H]3CN3CCOCC3)OCO4)n3c2CCCC3)c2ccc(O)cc2)cc1 [Compound 20]	5.40 to 5.70
O=C(O)c1cccc(CN(C(=O)c2cc(-c3cc4c(cc3C(=O)N3Cc5ccccc5C[C@H]3CN3CCOCC3)OCO4)n3c2CCCC3)c2ccc(O)cc2)c1 [Compound 45]	5.40 to 5.70
CS(=O)(=O)NC(=O)c1cccc(CN(C(=O)c2cc(-c3cc4c(cc3C(=O)N3Cc5ccccc5C[C@H]3CN3CCOCC3)OCO4)n3c2CCCC3)c2ccc(O)cc2)c1 [Compound 43]	5.40 to 5.70

Give the measured pIC50 of O=C(c1cc(-c2cc3c(cc2C(=O)N2Cc4ccccc4C[C@H]2CN2CCOCC2)OCO3)n2c1CCCC2)N(Cc1ccccc1C(F)(F)F)c1ccc(O)cc1 [Compound 5] .
≥ 5.70

Another compound to check: O=C(c1cc(-c2cc3c(cc2C(=O)N2Cc4ccccc4C[C@H]2CN2CCOCC2)OCO3)n2c1CCCC2)N(Cc1cccc(C(F)(F)F)c1)c1ccc(O)cc1 [Compound 16]
< 5.40

Another compound: Cn1cnnc1CN(C(=O)c1cc(-c2cc3c(cc2C(=O)N2Cc4ccccc4C[C@H]2CN2CCOCC2)OCO3)n2c1CCCC2)c1ccc(O)cc1 [Compound 48]
≥ 5.70

Try this compound next: O=C(c1cc(-c2cc3c(cc2C(=O)N2Cc4ccccc4C[C@H]2CN2CCOCC2)OCO3)n2c1CCCC2)N(Cc1cccc(F)c1)c1ccc(O)cc1 [Compound 21]
5.40 to 5.70

Now the compound COc1c(C)cnc(CN(C(=O)c2cc(-c3cc4c(cc3C(=O)N3Cc5ccccc5C[C@H]3CN3CCOCC3)OCO4)n3c2CCCC3)c2ccc(O)cc2)c1C [Compound 23]
< 5.40

And what about the compound O=C(c1cc(-c2cc3c(cc2C(=O)N2Cc4ccccc4C[C@H]2CN2CCOCC2)OCO3)n2c1CCCC2)N(Cc1c(F)cccc1C(F)(F)F)c1ccc(O)cc1 [Compound 22] ?
< 5.40
